assay: growth inhibition, single agents and combos, UWB1.289, cell-based, BGB or cisplatin combos, synergistic combos for chromothripsis tumors (AID 1671456);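 note: cells exposed to compound for four days; 0% = vehicle DMSO and 100% = killing by high DMSO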
experimentalSetup: UWB1.289 ovarian carcinoma cells, measured here: inhibition with BGB combination, at 0.05 µM, stronger effect = higher value
Classification field: Satisfied = inhibition at or over -20%; Not satisfied = inhibition under -20%.

INSERT INTO results (molecule, group) VALUES
  ('O=c1cc(N2CCOCC2)oc2c(-c3cccc4c3sc3ccccc34)cccc12', 'Not satisfied'),
  ('N=C1CCCN1Cc1[nH]c(=O)[nH]c(=O)c1Cl', 'Satisfied'),
  ('Nc1nc(OCc2cc(Br)cs2)c2[nH]cnc2n1', 'Satisfied'),
  ('NC1CCC(N[C@@H]2C[C@H]2c2ccccc2)CC1 (some centres not stated)', 'Satisfied'),
  ('Nc1ncnc2c1c(-c1cnc3[nH]ccc3c1)nn2C1CCCC1', 'Satisfied'),
  ('O=c1[nH]c([C@@H]2CCCN2)nc2c1oc1ccc(Cl)cc12', 'Satisfied'),
  ('Cc1cn([C@@H]2O[C@H](CO)[C@@H](O)[C@@H]2F)c(=O)[nH]c1=O', 'Satisfied'),
  ('O=C(O)CO.[NH2-].[NH2-].[Pt+2]', 'Satisfied'),
  ('Nc1ccccc1NC(=O)c1ccc(CNc2nccc(-c3cccnc3)n2)cc1', 'Satisfied'),
  ('O=C(/C=C/c1ccc(CN(CCO)CCc2c[nH]c3ccccc23)cc1)NO', 'Satisfied'),
  ('Cc1ccc([N+](=O)[O-])cc1S(=O)(=O)N(C)/N=C/c1cnc2ccc(Br)cn12', 'Satisfied'),
  ('NCCOc1cc(C(=O)Nc2cc(OCCN)c3ccccc3n2)nc(C(=O)Nc2cc(OCCN)c3ccccc3n2)c1', 'Not satisfied');

* * *

assay: drug combination growth inhibition, ovarian cancer – cell-based, oncology-focused library, rucaparib conditional, profiling panel (AID 1508598)
experimentalSetup: patient-derived ovarian cancer cells, CellTiter-Glo viability, 144 h; at 1.25 µM; OCI-C5x cells; without rucaparib; stronger effect = lower value
The following compounds are listed with their measured viability values.
quantityMeasured: viability (%)

INSERT INTO measurements (smilesstructure, quantitymeasured, reported) VALUES
  ('CNC(=O)c1cc(Oc2ccc(NC(=O)Nc3cc(C(C)(C)C)nn3-c3ccc4ncccc4c3)c(F)c2)ccn1', 'viability', 96.1),
  ('Cc1nc(Nc2n[nH]c3c2CN(C(=O)N[C@H](CN(C)C)c2ccccc2)C3(C)C)c2sccc2n1', 'viability', 95.2),
  ('CC(=O)Nc1nc(C)c(-c2ccc(Cl)c(S(=O)(=O)NCCO)c2)s1', 'viability', 122),
  ('O=C(Nc1cccnc1)N1CCC(Cc2cccc(Oc3ccc(C(F)(F)F)cn3)c2)CC1', 'viability', 129),
  ('CC(/C=C/C(=O)NO)=C\[C@@H](C)C(=O)c1ccc(N(C)C)cc1', 'viability', 4.64),
  ('CC(C)c1ccccc1Cc1cc(C(=O)Nc2ccc(S(=O)(=O)c3ccccc3C(C)(C)C)cc2)c(O)c(O)c1O', 'viability', 118);

* * *

assay: compounds altering HSF1 focus formation in cells – imaging, Selleck Cancer Library (AID 1347162)
experimentalSetup: human cells, HSF1 nuclear foci imaging, at 10 µM; measured here: HSF1 foci SSMD mean
quantityMeasured: SSMD

INSERT INTO results (molecule, quantitymeasured, reported) VALUES
  ('COc1cc2ncnc(Nc3cccc(Br)c3)c2cc1OC', 'SSMD', 2.47),
  ('CC(C)[C@H](C(=O)Nc1ccc(C(=O)NO)cc1)c1ccccc1', 'SSMD', -4.69),
  ('CN(NC(=O)CC(=O)NN(C)C(=S)c1ccccc1)C(=S)c1ccccc1', 'SSMD', 2.56),
  ('Nc1nc2[nH]cc(CCc3ccc(C(=O)N[C@@H](CCC(=O)O)C(=O)O)cc3)c2c(=O)[nH]1', 'SSMD', -2.05),
  ('COc1cc(OC2CCN(C)CC2)ccc1Nc1ncc2c(n1)n(C1CCCC1)c(=O)n2C', 'SSMD', 1.43),
  ('Cn1cncc1[C@@](N)(c1ccc(Cl)cc1)c1ccc2c(c1)c(-c1cccc(Cl)c1)cc(=O)n2C', 'SSMD', -8.89),
  ('COc1cc(Oc2ccnc3cc(OC)c(OC)cc23)ccc1NC(=O)NC(C)c1nccs1 (stereo unspecified)', 'SSMD', 1.89),
  ('COc1ccc(CNC(=O)Nc2ncc([N+](=O)[O-])s2)cc1', 'SSMD', 1.38),
  ('COc1ccc(/C=C\c2cc(OC)c(OC)c(OC)c2)cc1O', 'SSMD', 0.749),
  ('COc1cc(Nc2ncc(F)c(Nc3ccc4c(n3)NC(=O)C(C)(C)O4)n2)cc(OC)c1OC', 'SSMD', 2.8),
  ('COc1nc(C)cnc1NS(=O)(=O)c1cccnc1-c1ccc(-c2nnco2)cc1', 'SSMD', 2.08);
